All figures here come from patent US5182295A.

# System: Tetranychus Urticae
# PROCEDURE TEXT: Acaricide study on Tetranychus Urticae
# Assay type: in vivo
# APPLIED CONDITIONS: 72 h, females on treated bean plants, 3 days, read-out: LC50, Tetranychus
MEASUREMENT NAME: LC50

{"columns": ["COMPOUND", "MEASUREMENT NAME", "RECORDED MEASUREMENT"],
 "data": [
  ["CO/C=C(/C(=O)OC)c1cccc2cc(-c3ccc(Cl)c(OC)c3)oc12 [15 (E)]", "LC50", "250 to 1000 µg/mL"],
  ["CO/C=C(/C(=O)OC)c1cccc2cc(-c3ccc(Br)c(C(F)(F)F)c3)oc12 [14 (E)]", "LC50", "< 250 µg/mL"],
  ["CO/C=C(/C(=O)OC)c1cccc2cc(-c3ccc(Cl)cc3)oc12 [12 (E)]", "LC50", "< 250 µg/mL"],
  ["CO/C=C(\\C(=O)OC)c1cccc2cc(-c3ccc(OC)cc3)oc12 [1 (Z)]", "LC50", "< 250 µg/mL"],
  ["CCCCc1cc2cccc(/C(=C\\OC)C(=O)OC)c2o1 [18 (E)]", "LC50", "< 250 µg/mL"],
  ["CO/C=C(/C(=O)OC)c1cccc2cc(-c3csc(C(C)C)n3)oc12 [16 (E)]", "LC50", "< 250 µg/mL"]
]}
